- target_system: Cytochrome P450 2C9 (Homo sapiens)
- Sequence (P11712 whole entry): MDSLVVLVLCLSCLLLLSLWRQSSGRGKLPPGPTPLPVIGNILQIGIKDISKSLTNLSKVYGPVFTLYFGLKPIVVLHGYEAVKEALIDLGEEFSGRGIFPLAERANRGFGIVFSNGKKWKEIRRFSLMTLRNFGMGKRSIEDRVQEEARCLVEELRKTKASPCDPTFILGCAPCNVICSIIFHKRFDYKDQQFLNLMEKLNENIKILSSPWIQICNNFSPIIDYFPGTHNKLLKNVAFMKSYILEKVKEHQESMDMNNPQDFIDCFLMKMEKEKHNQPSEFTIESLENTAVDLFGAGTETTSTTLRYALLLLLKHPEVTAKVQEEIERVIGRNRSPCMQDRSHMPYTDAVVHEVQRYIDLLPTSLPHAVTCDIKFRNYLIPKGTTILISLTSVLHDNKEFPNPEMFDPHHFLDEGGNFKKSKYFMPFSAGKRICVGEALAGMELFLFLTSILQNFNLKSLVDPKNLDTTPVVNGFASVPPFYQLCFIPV
Provide the reported AC50 of each item.

Incoming: Requested read-out: AC50. Entry: O=C(Nc1ccc(OC(F)(F)F)cc1)c1n[nH]c(Cn2cncn2)n1
Outgoing: 11.2 µM (inconclusive)

Incoming: Quick one: AC50 for CCCCn1c(SCC(=O)NC(C)(C)C)nnc1-c1ccco1 ?
Outgoing: 0.0398 µM (inconclusive)

Incoming: Could you tell me which AC50 is on file for COc1ccc(NC(=O)N2CCCC3(CCN(C(=O)Oc4ccccc4)CC3)C2)cc1 ?
Outgoing: 1.58 µM (inconclusive)

Incoming: State the recorded AC50 for this entry: CCOC(=O)C1=C(O)C(Nc2nccs2)(C(F)(F)F)N=C1C (configuration not stated)
Outgoing: 35.5 µM (inconclusive)

Incoming: For the molecule shown here, CN1CCc2ccccc2[C@@H]1Cc1ccccc1NC(=O)c1sc2ccccc2c1Cl , give the reported AC50.
Outgoing: 3.16 µM (inconclusive)

Incoming: Sample CCOC(=O)CSc1n[nH]c(NC(=O)c2cccc(C(F)(F)F)c2)n1 — what was its AC50?
Outgoing: 5.01 µM (inconclusive)

Incoming: State the recorded AC50 for this entry: CCn1ccc(C(=O)NC2=C(C#N)CCC2)n1
Outgoing: 14.1 µM (inconclusive)

Incoming: May I ask what AC50 has been recorded for CCCCCC1=C2CNC(C)(C(=O)OC)C=C2C(C)C1=O (configuration not stated) ?
Outgoing: 31.6 µM (inconclusive)

Incoming: So what's the measured AC50 for this one? COc1cc(O)c2c(O)c3c(c4c2c1[C@@]1(C4)C(C)=CCCC1(C)C)[C@H](O)[C@@]1(O)CC(O)=C(C(N)=O)C(=O)[C@]1(O)C3=O
Outgoing: 3.16 µM (inconclusive)

Incoming: Can you share its AC50? I mean this molecule: CC(=O)c1ccc(-n2nnnc2SCC(=O)Nc2cccc(NC(=O)c3ccco3)c2)cc1
Outgoing: 7.08 µM (inconclusive)

Incoming: What value of AC50 has been recorded for this entry: COc1cccc(/C=N/NC(=O)CO/N=C(\C)c2cccs2)c1OC
Outgoing: 39.8 µM (inconclusive)

Incoming: Which AC50 is listed for CN1CCN(c2ncc3nc(-c4ccc(F)cc4)c(=O)n(Cc4cccs4)c3n2)CC1 ?
Outgoing: 0.0126 µM (inconclusive)

Incoming: Which AC50 value is on record for COc1ccccc1NC(=O)CC1COc2ccccc2O1 (configuration not stated) ?
Outgoing: 5.62 µM (inconclusive)

Incoming: So what's the measured AC50 for this one? Cc1cccc(-c2nnc(SCc3ccccc3)o2)c1
Outgoing: 39.8 µM (inconclusive)

Incoming: # query: AC50 of entry COC(=O)[C@@H]1C[C@H]1[C@@H](NC(=O)c1ccccc1)c1ccccc1
Outgoing: 39.8 µM (inconclusive)

Incoming: Field request: AC50 | item: O=C(OC[C@@H](O)CO)c1ccccc1Nc1ccnc2cc(Cl)ccc12
Outgoing: 15.8 µM (inconclusive)

Incoming: Query: AC50; subject: COc1ccc(-n2c(=O)c(C)nc3cncnc32)cc1
Outgoing: 39.8 µM (inconclusive)

Incoming: AC50 lookup needed for CCOC(=O)C1(S(=O)(=O)c2ccccc2)CCN(Cc2ccccc2)CC1 , thanks.
Outgoing: 11.2 µM (inconclusive)

Incoming: AC50 for O=C1NCCN1Cc1cccc(Cl)c1 ?
Outgoing: 2.24 µM (inconclusive)

Incoming: Fill in the blank: the reported AC50 of CCCCCCCCCCC/C=C\C(C)(C)/C=C\CCCC(=O)O is ____.
Outgoing: 15.8 µM (inconclusive)

Incoming: What value of AC50 has been recorded for this entry: O=C(N/N=C/c1ccncc1)c1cc2c(ccc3ccccc32)o1
Outgoing: 0.794 µM (inconclusive)

Incoming: Dear colleague, I am looking for the recorded AC50 of the following molecule: CCOc1c2ccc(C(=O)NCCc3cccs3)cc2nn1CC
Outgoing: 28.2 µM (inconclusive)
